# testDescription: molar heat capacity at constant pressure
# measurementContext: 230 K; 101.33 kPa; Crystal; relaxation calorimetry
measurementType: molar heat capacity at constant pressure (J/K/mol)

INSERT INTO measurements (compound, observedmeasurement) VALUES
  ('OC[C@@H](O)[C@@H](O)CO [meso-1,2,3,4-butanetetrol]', 130.27),
  ('OC[C@H](O)C(O)[C@@H](O)CO [L-(-)-arabitol]', 160.49),
  ('OC[C@@H](O)[C@@H](O)[C@H](O)[C@H](O)CO [D-mannitol]', 181.07),
  ('O[C@H]1[C@H](O)[C@@H](O)[C@H](O)[C@@H](O)[C@H]1O [cis-1,2,3,5-trans-4,6-cyclohexanehexol]', 167.37),
  ('OC[C@@H](O)C(O)[C@H](O)CO [D-arabitol]', 158.55),
  ('OC[C@@H](O)[C@H](O)[C@@H](O)CO [xylitol]', 161.19);

----------
Catalogue of molar heat capacity at constant pressure values
# testDescription: molar heat capacity at constant pressure
# measurementContext: 239.15 K; 101.33 kPa; Crystal; Small sample (50 mg) DSC
Numbers after ± are expanded uncertainties.
measurementType: molar heat capacity at constant pressure

INSERT INTO results (compound, measurementtype, observedmeasurement) VALUES
  ('OC[C@@H](O)[C@@H](O)[C@H](O)[C@H](O)CO [D-mannitol]', 'molar heat capacity at constant pressure', '186.79 ± 30 J/K/mol'),
  ('O[C@H]1[C@H](O)[C@@H](O)[C@H](O)[C@@H](O)[C@H]1O [cis-1,2,3,5-trans-4,6-cyclohexanehexol]', 'molar heat capacity at constant pressure', '173.06 ± 24 J/K/mol'),
  ('OC[C@H](O)C(O)[C@@H](O)CO [L-(-)-arabitol]', 'molar heat capacity at constant pressure', '165.4 ± 33 J/K/mol'),
  ('OC[C@@H](O)[C@H](O)[C@@H](O)CO [xylitol]', 'molar heat capacity at constant pressure', '167.65 ± 10 J/K/mol'),
  ('OC[C@@H](O)C(O)[C@H](O)CO [D-arabitol]', 'molar heat capacity at constant pressure', '160.99 ± 13 J/K/mol'),
  ('OC[C@@H](O)[C@@H](O)CO [meso-1,2,3,4-butanetetrol]', 'molar heat capacity at constant pressure', '133.62 ± 16 J/K/mol');

----------
# testDescription: molar heat capacity at constant pressure
# measurementContext: 206.15 K; 101.33 kPa; Crystal; Small sample (50 mg) DSC
Catalogue of molar heat capacity at constant pressure readings, one per entry.
measurementType: molar heat capacity at constant pressure (J/K/mol)

INSERT INTO results (compound, measurementtype, resultunit, observedmeasurement) VALUES
  ('OC[C@@H](O)C(O)[C@H](O)CO', 'molar heat capacity at constant pressure', 'J/K/mol', 139.19),
  ('OC[C@@H](O)[C@@H](O)CO', 'molar heat capacity at constant pressure', 'J/K/mol', 116.45),
  ('OC[C@@H](O)[C@@H](O)[C@H](O)[C@H](O)CO', 'molar heat capacity at constant pressure', 'J/K/mol', 161.64),
  ('OC[C@H](O)C(O)[C@@H](O)CO [L-(-)-arabitol]', 'molar heat capacity at constant pressure', 'J/K/mol', 143.74),
  ('OC[C@@H](O)[C@H](O)[C@@H](O)CO', 'molar heat capacity at constant pressure', 'J/K/mol', 145.08),
  ('O[C@H]1[C@H](O)[C@@H](O)[C@H](O)[C@@H](O)[C@H]1O [cis-1,2,3,5-trans-4,6-cyclohexanehexol]', 'molar heat capacity at constant pressure', 'J/K/mol', 147.9);

----------
# measurementContext: 30 K; 101.33 kPa; Crystal; relaxation calorimetry
Please note: molar entropy exactly at 7 J/K/mol is no (0). Only values below 7 J/K/mol get yes (1).

INSERT INTO results (molecule, discretelabel) VALUES
  ('OC[C@@H](O)[C@@H](O)CO [meso-1,2,3,4-butanetetrol]', 'yes (1)'),
  ('OC[C@@H](O)[C@@H](O)[C@H](O)[C@H](O)CO [D-mannitol]', 'no (0)'),
  ('O[C@H]1[C@H](O)[C@@H](O)[C@H](O)[C@@H](O)[C@H]1O [cis-1,2,3,5-trans-4,6-cyclohexanehexol]', 'no (0)'),
  ('OC[C@@H](O)[C@H](O)[C@@H](O)CO [xylitol]', 'yes (1)');

----------
Catalogue of compounds with associated molar heat capacity at constant pressure
# testDescription: molar heat capacity at constant pressure
# measurementContext: 283.15 K; 101.33 kPa; Crystal; Small sample (50 mg) DSC
measurementType: molar heat capacity at constant pressure (J/K/mol)

INSERT INTO measurements (compound, measurementtype, resultunit, observedmeasurement) VALUES
  ('OC[C@@H](O)[C@@H](O)[C@H](O)[C@H](O)CO', 'molar heat capacity at constant pressure', 'J/K/mol', 219.11),
  ('OC[C@@H](O)C(O)[C@H](O)CO', 'molar heat capacity at constant pressure', 'J/K/mol', 190.26),
  ('OC[C@H](O)C(O)[C@@H](O)CO [L-(-)-arabitol]', 'molar heat capacity at constant pressure', 'J/K/mol', 197.03),
  ('OC[C@@H](O)[C@H](O)[C@@H](O)CO', 'molar heat capacity at constant pressure', 'J/K/mol', 198.24),
  ('O[C@H]1[C@H](O)[C@@H](O)[C@H](O)[C@@H](O)[C@H]1O [cis-1,2,3,5-trans-4,6-cyclohexanehexol]', 'molar heat capacity at constant pressure', 'J/K/mol', 206.13),
  ('OC[C@@H](O)[C@@H](O)CO', 'molar heat capacity at constant pressure', 'J/K/mol', 156.24);

----------
# testDescription: molar heat capacity at constant pressure
# measurementContext: 340 K; 101.33 kPa; Crystal; Small sample (50 mg) DSC
measurementType: molar heat capacity at constant pressure (J/K/mol)

INSERT INTO measurements (compound, measurementtype, resultunit, observedmeasurement) VALUES
  ('OC[C@@H](O)[C@H](O)[C@@H](O)CO', 'molar heat capacity at constant pressure', 'J/K/mol', 245.1),
  ('OC[C@@H](O)C(O)[C@H](O)CO', 'molar heat capacity at constant pressure', 'J/K/mol', 240.61),
  ('OC[C@@H](O)[C@@H](O)[C@H](O)[C@H](O)CO', 'molar heat capacity at constant pressure', 'J/K/mol', 267.39),
  ('OC[C@@H](O)[C@@H](O)CO', 'molar heat capacity at constant pressure', 'J/K/mol', 189.91),
  ('O[C@H]1[C@H](O)[C@@H](O)[C@H](O)[C@@H](O)[C@H]1O [cis-1,2,3,5-trans-4,6-cyclohexanehexol]', 'molar heat capacity at constant pressure', 'J/K/mol', 254.75),
  ('OC[C@H](O)C(O)[C@@H](O)CO [L-(-)-arabitol]', 'molar heat capacity at constant pressure', 'J/K/mol', 251.69);

----------
# measurementContext: 315 K; 101.33 kPa; Crystal; Small sample (50 mg) DSC
Recorded molar entropy values for a group of molecules are listed next.
measurementType: molar entropy (J/K/mol)

INSERT INTO results (molecule, observedmeasurement) VALUES
  ('O[C@H]1[C@H](O)[C@@H](O)[C@H](O)[C@@H](O)[C@H]1O [cis-1,2,3,5-trans-4,6-cyclohexanehexol]', 210.5),
  ('OC[C@H](O)C(O)[C@@H](O)CO [L-(-)-arabitol]', 213.64),
  ('OC[C@@H](O)[C@@H](O)CO [meso-1,2,3,4-butanetetrol]', 174.78),
  ('OC[C@@H](O)C(O)[C@H](O)CO [D-arabitol]', 211.16),
  ('OC[C@@H](O)[C@H](O)[C@@H](O)CO [xylitol]', 210.02),
  ('OC[C@@H](O)[C@@H](O)[C@H](O)[C@H](O)CO [D-mannitol]', 240.08);

----------
# testDescription: molar heat capacity at constant pressure
# measurementContext: 160 K; 101.33 kPa; Crystal; relaxation calorimetry
measurementType: molar heat capacity at constant pressure (J/K/mol)

INSERT INTO results (molecule, measurementtype, observedmeasurement) VALUES
  ('OC[C@@H](O)[C@@H](O)CO', 'molar heat capacity at constant pressure', 95.4),
  ('OC[C@@H](O)[C@@H](O)[C@H](O)[C@H](O)CO', 'molar heat capacity at constant pressure', 132.36),
  ('O[C@H]1[C@H](O)[C@@H](O)[C@H](O)[C@@H](O)[C@H]1O [cis-1,2,3,5-trans-4,6-cyclohexanehexol]', 'molar heat capacity at constant pressure', 116.97),
  ('OC[C@@H](O)[C@H](O)[C@@H](O)CO', 'molar heat capacity at constant pressure', 117.52),
  ('OC[C@H](O)C(O)[C@@H](O)CO [L-(-)-arabitol]', 'molar heat capacity at constant pressure', 118.13),
  ('OC[C@@H](O)C(O)[C@H](O)CO', 'molar heat capacity at constant pressure', 117.04);
